System: SN12C
protocol-summary: NCI tumour cell line growth inhibition, 48 h
Active and inactive are the calls of the source. Cut-off read from the data, not from the text of the source: active = GI50 up to about 1.1 µM and inactive = higher.
Hi! Could you answer with just one of these? yes (1) for active, no (0) for inactive

Example results:
>>> df
                                   compound  assigned_label
0  O=c1c(-c2ccccc2)c(SCCN2CCCC2)n(-c2ccccc2)c(=S)n1-c1ccccc1          no (0)
1  Cc1ccc(S(=O)(=O)NNC(=O)c2sc(-c3nc(C)c(C(=O)NNS(=O)(=O)c4ccc(C)cc4)s3)nc2C)cc1          no (0)
2                NC(=S)N/N=C\c1nccc2ccccc12         yes (1)
3  CCOC(=O)/C(=C\NC(=S)Nc1ccc(OCC)cc1)C(=O)c1ccccc1          no (0)
4  N#CCCN(C1=NN(C(=O)CC(=O)Nc2ccc(Cl)cc2)C(c2ccccc2)C1)c1ccc(Cl)cc1 (stereo not given)          no (0)
5              C[N+](C)=c1[nH]c2ccccc2[nH]1          no (0)
6  COc1ccc(/N=N/c2c(C)c(C#N)c(=S)n(C3OC(COC(C)=O)C(OC(C)=O)C(OC(C)=O)C3OC(C)=O)c2C)cc1 (stereo not given)          no (0)
7  COc1cc2ccnc(-c3c4ccccc4c(N)c4c(OC)c(OC)ccc34)c2cc1OC          no (0)
8  CC1(C)N=C(N)N=C(N)N1c1cccc(C(=O)Nc2ccc(S(=O)(=O)F)cc2)c1          no (0)

Qu. Which outcome did this test record for the compound `CN(C)Cc1cc(C(=O)/C=C/c2ccccc2)cc(CN(C)C)c1O` ?
Ans. no (0)

====

Test system: SN12C
protocol-summary: NCI tumour cell line growth inhibition, 48 h
The source made the active and inactive calls. No stated cut-off is given here; in the data, active = GI50 up to about 1.1 µM and inactive = higher.
GI50 values for the molecules below.

For orientation, consider the following solved cases.
In [3]: df
Out[3]:
                            chemical_smiles         assay_value
0  COc1cccc(-c2nc(N)c(C#N)c3c2CCS(=O)(=O)c2ccc(C)cc2-3)c1  44.4 µM (inactive)
1  N=c1n(CC(=O)NC23CC4CC(CC(C4)C2)C3)c2ccccc2n1CC(=O)NC12CC3CC(CC(C3)C1)C2  1.87 µM (inactive)

Qu. I have this molecule here, `Cc1ccc(NC(=O)C(=O)CC(=O)c2sc(Nc3c(C)cccc3C)nc2C)cc1C` , and I need its recorded GI50.
Ans. > 100 µM (inactive)

Qu. Check `Nc1nc(=O)[nH]c2c1cnn2Cc1ccccc1` too.
Ans. > 100 µM (inactive)

====

Test system: SN12C
protocol-summary: NCI tumour cell line growth inhibition, 48 h
Calls of active or inactive are those of the source. Rule as the data show it: active = GI50 up to about 1.1 µM and inactive = higher. Peptide text beside a SMILES is read from it. * marks the point of attachment. Cbz = O=C(OCc1ccccc1)*; Boc = CC(C)(C)OC(=O)*; OBn = c1ccc(CO*)cc1
property-name: GI50

Qu. I have this compound here, COC(=O)C(CCCCNC(=O)OCc1ccccc1)NC(=O)C(CCC(=O)OCc1ccccc1)NC(=O)OC(C)(C)C (stereo not given) (Boc-Glu(OBn)-Lys(Cbz)-OMe; configuration not given here) , and I need its recorded GI50.
Ans. > 100 µM (inactive)

Qu. Check COc1ccc(NC(=O)C2C(=O)N(c3ccc(OC)cc3)C(=O)/C2=N\NC(N)=O)cc1 (stereo not given) too.
Ans. 98.9 µM (inactive)

Qu. Check O=C1C=C(c2ccccc2)OC1C1Sc2ccccc2NC1=O (stereo not given) too.
Ans. 9.23 µM (inactive)

Qu. Check `O/N=C1\SC(=N\O)/C(=N/O)S\C1=N/O` too.
Ans. > 100 µM (inactive)

Qu. Check COc1cc(C2SCC(=O)N2c2ccc(Cl)cc2)cc(I)c1O (stereo not given) too.
Ans. > 100 µM (inactive)

====

Test system: NCI/ADR-RES
protocol-summary: NCI tumour cell line growth inhibition, 48 h
Activity calls are given as the source filed them. No stated cut-off is given here; in the data, active = GI50 up to about 1.1 µM and inactive = higher.
Hi! Could you answer with just one of these? class 1 (active), class 0 (inactive)

Example results:
molecule	assigned-label
COc1cccc(-c2nc(N)c(C#N)c3c2CCS(=O)(=O)c2ccc(C)cc2-3)c1	class 0
COC(=O)C1CCC(=O)N1C(c1ccc2c(c1)OCO2)c1ccc2c(c1)OCO2 (stereo not drawn)	class 0
CC(=O)NCCCCNCCCNC(C)=O	class 0
c1cc2nsnc2c2c[nH]cc12	class 0
O=C1c2cccc3cc([N+](=O)[O-])cc(c23)C(=O)N1CCCN1CCN(CCCNc2ccc3ncn4c5ccccc5c(=O)c2c34)CC1	class 1

Qu. Which outcome did this test record for the molecule `O=C1NC(=S)N/C1=C\c1cc2c(=O)c3ccccc3sc2s1` ?
Ans. class 0

Qu. Check `CS(=O)(=O)OCCN(CCOS(C)(=O)=O)c1ccc(C=O)cc1` too.
Ans. class 0

Qu. Check CN1CC2CC(C1)c1cccc(=O)n1C2 (stereo not drawn) too.
Ans. class 0

Qu. Check `CCOC(=O)/C=C(/C(=O)OCC)n1ccc(=O)n(Cc2cnnn2COCCOC(C)=O)c1=O` too.
Ans. class 0

Qu. Check `CCOC(=O)n1[nH]c(=O)n(-c2ccccc2)c1=O` too.
Ans. class 0

Qu. Check `CCOC(=O)c1nnsc1NN` too.
Ans. class 0

Qu. Check `COc1ccc(C(=C2C(=O)OC(=O)C2=C(C)C)c2ccc(OC)cc2)cc1` too.
Ans. class 0

Qu. Check `O=C1CCCC(=O)N1n1c(Cc2ccccc2)n[nH]c1=O` too.
Ans. class 0

====

System: HCC 2998
protocol-summary: NCI tumour cell line growth inhibition, 48 h
Activity calls are given as the source filed them. Rule as the data show it: active = GI50 up to about 1.1 µM and inactive = higher.
property-name: GI50

For orientation, consider the following solved cases.
                                   compound  target_system  property_name          assay_value
0  CC1(C)CCCC2CC2CCC(C)(C)C1=O (stereo not drawn)       HCC 2998           GI50    0.242 µM (active)
1  CN1CC2CC(C1)c1cccc(=O)n1C2 (stereo not drawn)       HCC 2998           GI50    0.253 µM (active)
2                            O=CN(O)CC(=O)O       HCC 2998           GI50  > 100 µM (inactive)

Qu. I have this compound here, `CCCCNC(=O)c1cc2c(cc1Cl)Sc1nccn1S2(=O)=O` , and I need its recorded GI50.
Ans. > 100 µM (inactive)

====

System: OVCAR-4
protocol-summary: NCI tumour cell line growth inhibition, 48 h
Calls of active or inactive are those of the source. Cut-off read from the data, not from the text of the source: active = GI50 up to about 1.1 µM and inactive = higher.
property-name: GI50

For orientation, consider the following solved cases.
compound	GI50
COc1cc2c(cc1-c1coc3cc(O)ccc3c1=O)OCO2 [CUNEATIN]	19.8 µM (inactive)
CCOC(=O)/C=C(/C(=O)OCC)n1ccc(=O)n(Cc2cnnn2COCCOC(C)=O)c1=O	20 µM (inactive)
CSc1c(C#N)c(O)nc(N)c1C(=O)Nc1ccc(Cl)cc1	31.4 µM (inactive)

Qu. I have this compound here, `CN(C(=O)CC(=O)CP(=O)(c1ccccc1)c1ccccc1)c1ccccc1` , and I need its recorded GI50.
Ans. > 100 µM (inactive)

Qu. Check COC(=O)[C@H](Cc1ccccc1)NC(=O)OCC1OC(n2cc(C)c(=O)[nH]c2=O)CC1N=[N+]=[N-] (stereo not given in full) too.
Ans. > 100 µM (inactive)

Qu. Check C/C=C(\C)c1cc(=O)c2c(C)cc3c(c2o1)C(=O)c1c(O)c(C2CC(C)(N(C)C)C(OC(C)=O)C(C)O2)cc(C2CC(N(C)C)C(O)C(C)O2)c1C3=O (stereo not given) too.
Ans. 1.48 µM (inactive)

Qu. Check `N=C(CC(=O)Nc1ccc(Cl)cc1)Nc1ccccc1` too.
Ans. > 100 µM (inactive)

Qu. Check `COC(=O)NCCc1n[nH]c2c1C(=O)C=C(Nc1ccccc1OC)C2=O` too.
Ans. 16.8 µM (inactive)

Qu. Check `O=C(N/C(=C\c1ccccc1Cl)c1nc2ccccc2[nH]1)c1ccccc1` too.
Ans. 29 µM (inactive)

Qu. Check `CC1(C)N=C(N)N=C(N)N1c1cccc(C(=O)Nc2ccc(S(=O)(=O)F)cc2)c1` too.
Ans. > 100 µM (inactive)

====

System: CCRF-CEM
protocol-summary: NCI tumour cell line growth inhibition, 48 h
The source made the active and inactive calls. No stated cut-off is given here; in the data, active = GI50 up to about 1.1 µM and inactive = higher.
Hi! Could you answer with just one of these? active, inactive

Example results:
molecule	assigned-label
Cc1nc(O)c2ncn(CCO)c2n1	inactive
N#Cc1c(=O)c2ccccc2n2c1[nH]c1ccccc12	inactive
O=C(CN1CCCC1)Nc1ccc2sc3ccccc3c(=O)c2n1	inactive
CC(=O)Nc1ccc(CNc2cc(=O)[nH]c(=O)[nH]2)cc1	inactive
CCCCCCCCCCCCCCCCCCNc1nc(=O)n(C2CC(O)C(COP(=O)(O)OCC(COP(=O)(O)OC3C(CO)OC(n4ccc(N)nc4=O)C3O)OCCCCCCCCCCCCCCCCCC)O2)cc1F (stereo not given)	active
O=C1c2cccc3cc([N+](=O)[O-])cc(c23)C(=O)N1CCCN1CCN(CCCNc2ccc3ncn4c5ccccc5c(=O)c2c34)CC1	active
CC(C)n1c(=O)[nH]n(-c2ccccc2)c1=O	inactive
COC(=O)CCC(=O)C(CC(=O)OC)C(=O)CCC(=O)NCCc1ccccc1 (stereo not given)	inactive
CCOC(=O)C1COc2cc(-c3cc(=O)c4ccccc4o3)ccc2O1 (stereo not given)	inactive

Continue with the molecule presented below.
Qu. Which outcome did this test record for the molecule CCOC(=O)C(C(=S)Nc1ccccc1)c1nn2c(=O)cc(C)nc2s1 (stereo not given) ?
Ans. inactive
